- ASSAY TARGET: FGFR2IIIb-Fc (human, UniProt P21802)
- Sequence (P21802 22-377): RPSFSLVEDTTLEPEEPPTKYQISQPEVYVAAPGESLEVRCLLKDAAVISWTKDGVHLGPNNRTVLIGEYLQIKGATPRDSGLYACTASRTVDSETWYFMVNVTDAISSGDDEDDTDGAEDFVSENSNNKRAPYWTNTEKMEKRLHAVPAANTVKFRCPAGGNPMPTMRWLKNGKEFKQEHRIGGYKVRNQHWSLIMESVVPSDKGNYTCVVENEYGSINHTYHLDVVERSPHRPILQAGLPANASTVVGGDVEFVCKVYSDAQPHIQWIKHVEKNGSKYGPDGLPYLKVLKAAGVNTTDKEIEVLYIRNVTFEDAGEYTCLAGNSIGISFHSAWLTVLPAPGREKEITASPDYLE
- ASSAY OVERVIEW: competition ELISA, FGF10
REPORTED PROPERTY: IC50 (µg/mL)
Only the number, expressed in µg/mL, is required.

Answered examples (2):
BINDER	QUANTITATIVE READOUT
III-13 (antibody, V domains shown) VH: QVQLVQSGAEVKKPGSSVKVSCKASGYTFAIYNMHWVRQAPGQGLEWIGAIYPDNGDTSYNQKFKGKATLTADKSTSTAYMELSSLRSEDTAVYYCARGDFGYWGQGTLVTVSS VL: DIVMTQSPSSLSASVGDRVTITCKASQDVNIDVAWYQQKPGKAPKLLIYLASYRYTGVPSRFSGSGSGTDFTFTISSLQPEDFATYYCQQTYSTPYTFGQGTKLEIK	0.905
III-11 (antibody, V domains shown) VH: QVQLVQSGAEVKKPGSSVKVSCKASGYTFAIYNMHWVRQAPGQGLEWIGAIYPDNGDTFYNQKFKGKATLTADKSTSTAYMELSSLRSEDTAVYYCARGDFGYWGQGTLVTVSS VL: DIVMTQSPSSLSASVGDRVTITCKASQDVNIDPAWYQQKPGKAPKLLIYLASYRYTGVPSRFSGSGSGTDFTFTISSLQPEDFATYYCQQHYSTPYTFGQGTKLEIK	0.976

### Prompt # lookup: IC50 of III-15 (antibody, V domains shown) VH: QVQLVQSGAEVKKPGSSVKVSCKASGYTFAIYNMHWVRQAPGQGLEWIGAIYPDNGDTFYNQKFKGKATLTADKSTSTAYMELSSLRSEDTAVYYCARGDFGYWGQGTLVTVSS VL: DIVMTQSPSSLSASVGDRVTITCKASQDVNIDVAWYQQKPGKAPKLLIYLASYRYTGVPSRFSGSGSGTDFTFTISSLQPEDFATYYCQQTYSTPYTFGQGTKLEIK
### Response 0.805

### Prompt Moving on to the next binder: III-14 (antibody, V domains shown) VH: QVQLVQSGAEVKKPGSSVKVSCKASGYTFAIYNMHWVRQAPGQGLEWIGAIYPGNGDTFYNQKFKGKATLTADKSTSTAYMELSSLRSEDTAVYYCARGDFGYWGQGTLVTVSS VL: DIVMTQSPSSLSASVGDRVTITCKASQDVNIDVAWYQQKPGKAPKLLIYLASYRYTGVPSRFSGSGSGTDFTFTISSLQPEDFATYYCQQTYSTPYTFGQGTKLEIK
### Response 0.937

### Prompt Moving on to the next binder: III-12 (antibody, V domains shown) VH: QVQLVQSGAEVKKPGSSVKVSCKASGYTFANYNMHWVRQAPGQGLEWIGAIYPDNGDTSYNQKFKGKATLTADKSTSTAYMELSSLRSEDTAVYYCARGDFGYWGQGTLVTVSS VL: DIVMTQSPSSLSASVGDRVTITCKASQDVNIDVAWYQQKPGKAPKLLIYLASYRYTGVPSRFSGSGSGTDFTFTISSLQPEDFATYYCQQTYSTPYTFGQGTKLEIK
### Response 0.999
